Overview of recorded EC50 for various compounds
test: Anti BVDV activity in MDBK (Madin-darby bovine kidney) cells; format: functional, Bos taurus
Please reply with the bare figure in µM and do not write the unit itself.

Past entries and their recorded results:
Nc1ncnc2c1ncn2[C@H]1C[C@H](OC2Sc3ccccc3S2)[C@@H](CO)O1 = 63.8
Nc1ccn([C@H]2C[C@H](OC3Sc4ccccc4S3)[C@@H](CO)O2)c(=O)n1 = 69.1
Cc1cn([C@H]2C[C@H](OC3Sc4ccccc4S3)[C@@H](CO)O2)c(=O)[nH]c1=O = 46.8
Nc1nc(O)c2ncn([C@H]3C[C@H](OC4Sc5ccccc5S4)[C@@H](CO)O3)c2n1 = 79.4
O=c1ccn([C@@H]2O[C@H](CO)C(O)[C@@H]2OC2Sc3ccccc3S2)c(=O)[nH]1 (some centres undefined) = 56.7

Fill in the blank: the reported EC50 of Nc1nc(O)c2ncn([C@@H]3O[C@H](CO)C(O)[C@@H]3OC3Sc4ccccc4S3)c2n1 (some centres undefined) is ____. 14.4
